assay_protocol: inhibitors of the yeast RAM network, pilot screen, dse1pr::URA3 reporter, 5-FOA selection (AID 869);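 also: 0% = DMSO wells with no growth and 100% = 10 µM 1-NA-PP1 with full growth; RAM network block rescues cells from 5-FOA so hits raise OD615 growth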
condition_label: S. cerevisiae dse1pr::URA3 5-FOA growth, OD615, 2 d; at 10 µM; hits give high values; strain carries analog-sensitive mutant Cbk1 kinase
The reader will find reported inhibition values listed item by item below.
Just the number in %, nothing appended.

| compound | units | inhibition |
| --- | --- | --- |
| CCOc1ccc(NC(=O)Nc2ccc3c(c2)N(C)C(=O)CS3)cc1 | % | 4.93 |
| CC1(C)Cc2c(c(N3CCOCC3)nc3sc(C(=O)N4CCCCC4)c(N)c23)CO1 | % | 2.62 |
| O=C(Nc1ccc(N2CCN(C(=O)c3ccccc3)CC2)c(Cl)c1)c1ccco1 | % | 3.31 |

Query: Entry "CCOc1ccc(N(CC(=O)Nc2ccccc2C)S(=O)(=O)c2c(C)noc2C)cc1" : reported inhibition = ?
Result: 2.38

Query: Entry "C=CCn1cc(C(=O)NCc2cccnc2)c(=O)c2cc(S(=O)(=O)N(CC)CC)ccc21" : reported inhibition = ?
Result: 1.33

Query: Entry O=C1C2ON(c3ccccc3)C(c3ccncc3)C2C(=O)N1c1ccc(N2CCOCC2)cc1 (stereo not given) : reported inhibition = ?
Result: 2.51

Query: Entry "COc1ccc(OC)c(NC(=O)Nc2ccccc2C)c1" : reported inhibition = ?
Result: 1.13

Query: Entry "O=C(c1ccccc1C(=O)N1CCN(c2ccccc2F)CC1)N1CCN(c2ccccc2F)CC1" : reported inhibition = ?
Result: 1.44

Query: Entry "CCc1nnc(NC(=O)CN2CCOCC2)s1" : reported inhibition = ?
Result: 1.18

Query: Entry "Cc1ccc(C(=O)NCCCCNC(=O)c2ccc(C)o2)o1" : reported inhibition = ?
Result: 3.56

* * *

assay_protocol: inhibitors of the yeast RAM network, pilot screen, dse1pr::URA3 reporter, 5-FOA selection (AID 869);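 also: 0% = DMSO wells with no growth and 100% = 10 µM 1-NA-PP1 with full growth; RAM network block rescues cells from 5-FOA so hits raise OD615 growth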
condition_label: S. cerevisiae dse1pr::URA3 5-FOA growth, OD615, 2 d; at 10 µM; hits give high values; strain carries analog-sensitive mutant Cbk1 kinase
The reader will find reported inhibition values listed item by item below.
Just the number in %, nothing appended.

# count of solved cases: 3
| compound | inhibition / % |
| --- | --- |
| CCOC(=O)C1=C(C)NC(=O)NC1c1cn(-c2ccccc2)nc1-c1cccs1 (stereo not given) | 1.46 |
| COc1cc2[nH]c(=O)n(CCCCCC(=O)NCCCN3CCOCC3)c(=O)c2cc1OC | 0.585 |
| Cn1c(=O)oc2cc(S(=O)(=O)NC(Cc3ccccc3)C(=O)N3CCCCC3)ccc21 (stereo not given) | 2.8 |

Query: Entry "O=C(OCCN(C1=NS(=O)(=O)c2ccccc21)c1ccc(Cl)cc1)c1ccco1" : reported inhibition = ?
Result: 1.44

Query: Entry "COc1ccc(Cl)cc1NC(=O)c1nc2nc(C)cc(C(F)F)n2n1" : reported inhibition = ?
Result: 2.35

Query: Entry CC1CCc2c(sc3nc(SCc4nc(-c5ccccc5)no4)n(C)c(=O)c23)C1 (stereo not given) : reported inhibition = ?
Result: 2.21

Query: Entry O=C(NCCc1ccccc1)c1ccc2c(c1)N(Cc1ccccc1)C(=O)CS2=O (stereo not given) : reported inhibition = ?
Result: 0.2

Query: Entry CCOCCCNC(=O)C(c1ccc(Cl)cc1)N1CCN(c2ccccc2)CC1 (stereo not given) : reported inhibition = ?
Result: 0.95

Query: Entry "O=C(CN(Cc1ccccc1)S(=O)(=O)c1ccccc1)NC1CC1" : reported inhibition = ?
Result: -0.45

Query: Entry "Cn1c(=O)[nH]c(=O)c2c1nc(NC1CCCCC1)n2CCO" : reported inhibition = ?
Result: 1.19

* * *

The reader will find reported viability values listed item by item below.
assay_protocol: growth suppression of PTEN-deleted HCT116, pilot screen, cell-based, HCT116 clonal line, CellTiter-Glo (AID 824);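 also: 0% = 20 µM Hyamine control and 100% = vehicle cell control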
condition_label: 60 h, at 10 µM, hits give low values
Inconclusive results are not listed.
Just the number in %, nothing appended.

| molecule | units | viability |
| --- | --- | --- |
| O=C(CSc1nc2c(c(=O)n1-c1ccc(Cl)cc1)SCC2)NCc1ccco1 | % | 89 |
| CCc1ccc2nc(NC3=NCN(CCOC)CN3)nc(C)c2c1 | % | 66.9 |
| CCOC(=O)c1c(C)[nH]c(C(=O)OC)c1CCC(=O)OC | % | 91.9 |
| CN(C)CCCN1C(=O)c2oc3ccc(F)cc3c(=O)c2C1c1cccnc1 (configuration not stated) | % | 98.7 |
| Cc1cc2ccccc2n1CCNC(=O)c1cccs1 | % | 91.4 |

Query: Entry "CCCCCn1c(CNC(C)=O)nc2ccccc21" : reported viability = ?
Result: 97.7

Query: Entry Cc1ccc(C2=CC(c3ccc(N(C)C)cc3)n3nnnc3N2)cc1 (configuration not stated) : reported viability = ?
Result: 77.3

Query: Entry "O=C(NC1CCN(C(=O)N2c3ccccc3Sc3ccccc32)CC1)c1ccco1" : reported viability = ?
Result: 59.7

Query: Entry "CCSc1nnc(NC(=O)CCn2c(=O)oc3ccccc32)s1" : reported viability = ?
Result: 103

Query: Entry COc1ccc(C2C/C(=N\O)C(C)(C)O2)cc1 (configuration not stated) : reported viability = ?
Result: 93.7

Query: Entry O=C1c2ccccc2C(Nc2ccc3c(c2)OCCO3)N1Cc1ccccc1 (configuration not stated) : reported viability = ?
Result: 80.9

Query: Entry C=CC1C(N2CCOCC2)C(C)(C)S1(=O)=O (configuration not stated) : reported viability = ?
Result: 101

* * *

assay_protocol: RAM signaling pathway blockade in yeast – S. cerevisiae, Pdr1DBD-CYC8 efflux-inhibited sensitized strain, primary screen (AID 1298);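 also: 0% = DMSO untreated cells without growth and 100% = 10 µM 1-NA-PP1 full growth; higher means more yeast growth rescued from 5-FOA killing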
condition_label: S. cerevisiae cbk1-as DSE1-URA3 strain, 5-FOA growth OD615, 2 d; at 50 µM; hits give high values
The reader will find reported RAM network inhibition values listed item by item below.
Just the number in %, nothing appended.

# count of solved cases: 6
| compound | RAM network inhibition, % |
| --- | --- |
| Cc1ccc(-c2nnc3ccc(SC(C)C(=O)O)nn23)cc1 (stereo not drawn) | 3.9 |
| CCSc1nnc(Cc2cc(=O)[nH]c(=O)[nH]2)n1-c1ccc(Cl)cc1 | -0.99 |
| COc1ccc(S(=O)(=O)N2CCC(C(=O)N3CCc4ccccc4C3)CC2)cc1 | 2.53 |
| COC(=O)c1cc(Nc2cc(C)nc3ncnn23)cc(C(=O)OC)c1 | 1.36 |
| CSc1ccc(S(=O)(=O)N2CCN(Cc3ccc4c(c3)OCO4)CC2)cc1 | 6.37 |
| O=C(CSc1ncnc2nc[nH]c12)N1CCOCC1 | 2.34 |

Query: Entry Cc1nc2ccc(S(=O)(=O)NC(C(=O)NC3CCCC3)C(C)C)cc2s1 (stereo not drawn) : reported RAM network inhibition = ?
Result: 1.87

Query: Entry "CN(C)CCNC(=O)c1ccc2c(c1)N(Cc1ccc(F)cc1)CCS2" : reported RAM network inhibition = ?
Result: 0.57

Query: Entry "O=C(c1cc2c(ccc3ccccc32)oc1=O)N1CCN(CCO)CC1" : reported RAM network inhibition = ?
Result: -1.69

Query: Entry "O=C(NCc1ccc2c(c1)OCO2)c1cc2c(s1)CSC2" : reported RAM network inhibition = ?
Result: 0.94

* * *

assay_protocol: OD615 S. cerevisiae growth inhibition, permissive medium, pilot counter-assay, permissive growth control for S. cerevisiae lifespan shortening project (AID 705)
condition_label: OD615, 24 h, at 10 µM
Activity calls are given as the source filed them.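 The calls were made as follows: active = growth inhibition above 25% in both replicates, a cutoff set 3 SD above the mean; inconclusive = above 25% in only one replicate; inactive = the rest.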
API: response.call in active, inactive

Study these solved cases before continuing.
| molecule | group |
| --- | --- |
| COc1cc(NC(=O)c2cc(C(C)C)on2)cc(OC)c1OC | inactive |
| Cc1cc(Nc2cccc(C)c2C)n2ncnc2n1 | inactive |
| O=C(O)CCc1ccc(-c2cccs2)n1NC(=O)c1ccc(Cl)cc1 | inactive |
| C=CCOC(=O)C1=C(C)NC(=O)NC1/C=C/c1ccccc1 (centres undefined) | inactive |
| CCOCCCn1cnc2c([nH]c3cc(OC)ccc32)c1=O | inactive |

Query: Test call, this molecule: O=C1C2C(c3ccccc3)C=CC(c3ccccc3)C2C(=O)N1CCO (centres undefined)
Result: inactive

Query: Test call, this molecule: "C=CCn1c(C)c(C(C)=O)c(SC)nc1=S"
Result: inactive

Query: Test call, this molecule: "COc1ccc(Cn2nnc3c(=O)[nH]c(C(=O)NCCc4ccc(F)cc4)nc32)cc1OC"
Result: inactive

* * *

assay_protocol: inhibitors of the yeast RAM network, pilot screen, dse1pr::URA3 reporter, 5-FOA selection (AID 869);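 also: 0% = DMSO wells with no growth and 100% = 10 µM 1-NA-PP1 with full growth; RAM network block rescues cells from 5-FOA so hits raise OD615 growth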
condition_label: S. cerevisiae dse1pr::URA3 5-FOA growth, OD615, 2 d; at 10 µM; hits give high values; strain carries analog-sensitive mutant Cbk1 kinase
metric: inhibition (%)
Just the number in %, nothing appended.

# count of solved cases: 5
| compound | inhibition (%) |
| --- | --- |
| CCCC(=O)NCCCc1nc2ccccc2[nH]1 | 1.45 |
| COc1cc2c(cc1OC)C(C(=O)N1CCCC1)C(c1ccccc1F)N(C)C2=O (stereo not given) | 0.27 |
| O=C(CCCn1c(=O)[nH]c2ccccc2c1=O)N1CCN(c2ccccn2)CC1 | 2.37 |
| CCOC(=O)C1=C(C)NC(=O)NC1c1ccco1 (stereo not given) | -0.995 |
| O=C(CN1c2cccc3cccc(c23)S1(=O)=O)NCc1ccc2c(c1)OCO2 | 1.05 |

Query: Entry "O=C(CCNS(=O)(=O)c1cccc2nsnc12)NCCc1ccccc1" : reported inhibition = ?
Result: 0.11

Query: Entry "CCCc1ccc(Oc2cn[nH]c2-c2ccc(O)cc2O)cc1" : reported inhibition = ?
Result: 0.7

Query: Entry "Cc1onc(-c2c(F)cccc2Cl)c1C(=O)OCC(=O)Nc1c(C)n(C)n(-c2ccccc2)c1=O" : reported inhibition = ?
Result: 0.92

Query: Entry CC(=O)C1=C(C)N=c2s/c(=C/c3ccc4c(c3)OCO4)c(=O)n2C1c1ccc(N(C)C)cc1 (stereo not given) : reported inhibition = ?
Result: 1.13

Query: Entry Cc1ccc(-n2c(SCC(=O)Nc3cc(C)on3)nc3c(c2=O)SC(C)C3)cc1 (stereo not given) : reported inhibition = ?
Result: 0.5

Hey, just so you know, these numbers are from PubChem BioAssay.
